Data credit: the supplement of paper PMC10065799

Here, each record is paired with measured phosphorylation enrichment data.
target: Fyn (UniProt P06241); test: phosphorylation enrichment, bacterial display (enrichment ratio); higher = better substrate or ligand; peptides without Tyr show the background;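 also: 11-residue human phosphosite peptides and single-mutation variants displayed on the E. coli surface, counted by deep sequencing, each peptide's frequency after selection divided by its frequency in the unselected input library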;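 also: frequency after pTyr selection over input frequency; kinase dosed for 20-30% of maximal phosphorylation in three min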
Sequence (P06241 whole entry, looked up): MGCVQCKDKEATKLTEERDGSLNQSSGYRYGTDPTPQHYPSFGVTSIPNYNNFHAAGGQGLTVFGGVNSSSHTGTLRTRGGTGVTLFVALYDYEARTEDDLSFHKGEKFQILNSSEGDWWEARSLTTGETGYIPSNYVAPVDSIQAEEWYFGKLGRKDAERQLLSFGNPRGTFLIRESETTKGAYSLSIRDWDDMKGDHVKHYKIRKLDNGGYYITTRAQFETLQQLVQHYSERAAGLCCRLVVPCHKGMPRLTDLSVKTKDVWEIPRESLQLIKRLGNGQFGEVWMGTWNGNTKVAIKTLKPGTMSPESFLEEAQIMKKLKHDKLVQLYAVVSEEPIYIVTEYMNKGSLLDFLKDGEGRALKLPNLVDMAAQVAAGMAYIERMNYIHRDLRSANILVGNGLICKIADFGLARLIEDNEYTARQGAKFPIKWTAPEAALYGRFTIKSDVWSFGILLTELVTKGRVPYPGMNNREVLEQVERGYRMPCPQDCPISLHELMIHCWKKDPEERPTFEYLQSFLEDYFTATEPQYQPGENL
Number only, please.

Below, each entry is followed by its recorded phosphorylation enrichment result.
Challenge: Fill in: phosphorylation enrichment of DLAGRYFALKS [CKB_Y173_YF] is ___
Response given: 0.433

Challenge: Request: LAAAGYDVEKN [H1-3_Y72]
Response given: 0.493

---
Challenge: Fill in: phosphorylation enrichment of QPSPSYDSSRG [TCF12_Y70] is ___
Response given: 0.623

Challenge: Request: SKGFAYVHFDS [PABPC5_Y149_YF]
Response given: 0.381

Challenge: Request: GRTNIYNNKKD [SLC26A3_Y520_K521N]
Response given: 0.347

Challenge: Request: FARNSYVAGQF [G6PD_Y107_YF]
Response given: 0.489

Challenge: Request: QSVEPYTKQQL [STAT3_Y640]
Response given: 0.536

###

target: FGFR1 (UniProt P11362); test: phosphorylation enrichment, bacterial display (enrichment ratio); higher = better substrate or ligand; peptides without Tyr show the background
Sequence (P11362 whole entry, looked up): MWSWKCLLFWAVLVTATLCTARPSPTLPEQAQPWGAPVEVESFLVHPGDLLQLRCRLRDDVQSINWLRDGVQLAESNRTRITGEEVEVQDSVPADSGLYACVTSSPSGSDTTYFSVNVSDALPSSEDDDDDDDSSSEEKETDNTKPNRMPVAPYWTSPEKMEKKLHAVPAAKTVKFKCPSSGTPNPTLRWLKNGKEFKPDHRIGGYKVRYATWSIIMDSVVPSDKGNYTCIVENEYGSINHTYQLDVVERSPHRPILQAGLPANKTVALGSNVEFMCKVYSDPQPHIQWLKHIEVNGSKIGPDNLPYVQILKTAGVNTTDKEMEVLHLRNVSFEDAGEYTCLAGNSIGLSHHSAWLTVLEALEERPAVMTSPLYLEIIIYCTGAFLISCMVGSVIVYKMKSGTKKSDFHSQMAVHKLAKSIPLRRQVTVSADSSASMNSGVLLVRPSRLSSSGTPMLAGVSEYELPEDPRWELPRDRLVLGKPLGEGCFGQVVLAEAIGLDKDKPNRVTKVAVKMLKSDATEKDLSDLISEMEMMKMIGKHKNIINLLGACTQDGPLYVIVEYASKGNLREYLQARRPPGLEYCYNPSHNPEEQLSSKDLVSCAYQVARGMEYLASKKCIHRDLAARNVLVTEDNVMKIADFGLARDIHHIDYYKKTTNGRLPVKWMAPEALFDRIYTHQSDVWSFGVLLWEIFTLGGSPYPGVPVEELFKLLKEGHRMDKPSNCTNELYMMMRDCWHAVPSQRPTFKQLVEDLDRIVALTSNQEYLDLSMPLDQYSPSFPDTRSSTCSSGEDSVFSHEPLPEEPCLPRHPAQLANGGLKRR
readout name: phosphorylation enrichment

Challenge: Fill in: phosphorylation enrichment of VVEFGYEFFAK [PPP1CB_Y254_D252Y_YF] is ___
Response given: 0.558

Challenge: Request: DLAGRYFALKS [CKB_Y173_YF]
Response given: 0.412

Challenge: Request: ADLLDYIKALN [HPRT1_Y81]
Response given: 0.434

Challenge: Request: FQLENCCNGGG [INS_Y108_Y108C_YF]
Response given: 0.442

Challenge: Request: NFAKMYCNPDA [KNL1_Y489_YF]
Response given: 0.569

Proceed to the following item.
Challenge: Fill in: phosphorylation enrichment of GRFSGYKSKHG [EPHA3_Y570_C568S] is ___
Response given: 0.312

###

Here, each record is paired with measured phosphorylation enrichment data.
molecular target: EPHB2 (UniProt P29323); assay: phosphorylation enrichment, bacterial display (enrichment ratio); higher = better substrate or ligand; peptides without Tyr show the background
Sequence (P29323 whole entry, looked up): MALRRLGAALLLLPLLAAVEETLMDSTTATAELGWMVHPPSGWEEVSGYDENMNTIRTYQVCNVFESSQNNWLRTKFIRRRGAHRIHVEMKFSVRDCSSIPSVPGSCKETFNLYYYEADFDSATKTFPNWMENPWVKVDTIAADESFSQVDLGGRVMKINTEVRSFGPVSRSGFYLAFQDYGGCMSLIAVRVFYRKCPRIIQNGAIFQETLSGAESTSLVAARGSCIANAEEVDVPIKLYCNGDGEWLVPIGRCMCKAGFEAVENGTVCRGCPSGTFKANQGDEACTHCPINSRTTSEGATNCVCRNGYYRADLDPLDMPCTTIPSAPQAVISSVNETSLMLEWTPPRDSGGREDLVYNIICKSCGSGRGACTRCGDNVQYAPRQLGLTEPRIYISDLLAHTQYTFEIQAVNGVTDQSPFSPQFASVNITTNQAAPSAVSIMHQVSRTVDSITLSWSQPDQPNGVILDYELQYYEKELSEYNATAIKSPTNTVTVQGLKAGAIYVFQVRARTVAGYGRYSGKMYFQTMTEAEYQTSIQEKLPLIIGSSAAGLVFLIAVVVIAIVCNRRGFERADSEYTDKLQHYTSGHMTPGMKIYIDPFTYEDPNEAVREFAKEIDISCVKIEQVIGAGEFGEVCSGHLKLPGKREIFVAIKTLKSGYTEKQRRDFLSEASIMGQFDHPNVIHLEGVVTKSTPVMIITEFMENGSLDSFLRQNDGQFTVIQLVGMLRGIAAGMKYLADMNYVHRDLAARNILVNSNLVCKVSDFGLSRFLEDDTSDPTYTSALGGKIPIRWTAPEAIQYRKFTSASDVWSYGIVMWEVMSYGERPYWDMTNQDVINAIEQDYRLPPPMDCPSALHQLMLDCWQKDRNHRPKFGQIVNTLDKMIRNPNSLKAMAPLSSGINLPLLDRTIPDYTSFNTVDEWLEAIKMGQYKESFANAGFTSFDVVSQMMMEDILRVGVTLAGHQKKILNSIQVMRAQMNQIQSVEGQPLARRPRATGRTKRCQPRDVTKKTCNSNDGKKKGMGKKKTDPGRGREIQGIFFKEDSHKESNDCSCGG
Number only, please.

Below, each entry is followed by its recorded phosphorylation enrichment result.
Challenge: Fill in: phosphorylation enrichment of SGDDGYAKDAQ [TENM4_Y1530_K1535Q] is ___
Response given: 0.394

Challenge: Request: EYKKKYSDADI [CKAP5_Y1860]
Response given: 0.474

Challenge: Request: LIEQAYDNLHE [PRPF8_Y871_P874L]
Response given: 0.877

Challenge: Request: VEGISYDFIPT [CBS_Y308_G307S]
Response given: 0.568

Challenge: Request: PSNTEYPGPHS [TP63_Y171_D170E]
Response given: 0.671

---
Challenge: Fill in: phosphorylation enrichment of ERIEFYELNKK [PMM2_Y145_D148N] is ___
Response given: 0.71

Challenge: Request: ALERPYTSKHS [NANS_Y71]
Response given: 0.459

###

system: c-Src; experiment: phosphorylation enrichment, bacterial display (enrichment ratio); higher = better substrate or ligand; peptides without Tyr show the background
readout name: phosphorylation enrichment
Number only, please.

Below, each entry is followed by its recorded phosphorylation enrichment result.
Challenge: Fill in: phosphorylation enrichment of EQKKYSNAMKK [SCN5A_Y1495_Y1495S] is ___
Response given: 0.262

Challenge: Request: DGTGHYLCNAC [GATA5_Y208]
Response given: 0.421

Challenge: Request: QELRRYLKSSV [MICA_Y194_G198S]
Response given: 0.298

Challenge: Request: MHRRQYELLGG [GNAS_Y391_L388R]
Response given: 0.336

Challenge: Request: NKFTTYLPRLP [C9orf24_Y126_YF]
Response given: 0.425

Challenge: Request: EVKRLYGSVCD [TC2N_Y154]
Response given: 0.656

Proceed to the following item.
Challenge: Fill in: phosphorylation enrichment of RILDVYIFLGP [GAA_Y340_G335R] is ___
Response given: 0.393

###

biological target: EPHB2 (UniProt P29323); experiment: phosphorylation enrichment, bacterial display (enrichment ratio); higher = better substrate or ligand; peptides without Tyr show the background
Here, each record is paired with measured phosphorylation enrichment data.
Number only, please.

Challenge: Fill in: phosphorylation enrichment of DGMADYSDPSY [CDC5L_Y459] is ___
Response given: 1.71

Challenge: Request: ECKASCPGKIT [PRSS3_Y232_Y232C]
Response given: 0.335

---
Challenge: Fill in: phosphorylation enrichment of TWSSSYRSDRL [CRYBB1_Y131] is ___
Response given: 0.608

Challenge: Request: RAMPVYEKAEH [TP63_Y231_K232E]
Response given: 0.834

Challenge: Request: NLNGKYNKPRA [ANGPTL3_Y417]
Response given: 0.353

Challenge: Request: EKQVAYCPSGK [ROS1_Y2323]
Response given: 0.445

Challenge: Request: MTFVFYRENLR [NLRP14_Y443_YF]
Response given: 0.719

###

target: Hck (UniProt P08631); experiment: phosphorylation enrichment, bacterial display (enrichment ratio); higher = better substrate or ligand; peptides without Tyr show the background
Sequence (P08631 whole entry, looked up): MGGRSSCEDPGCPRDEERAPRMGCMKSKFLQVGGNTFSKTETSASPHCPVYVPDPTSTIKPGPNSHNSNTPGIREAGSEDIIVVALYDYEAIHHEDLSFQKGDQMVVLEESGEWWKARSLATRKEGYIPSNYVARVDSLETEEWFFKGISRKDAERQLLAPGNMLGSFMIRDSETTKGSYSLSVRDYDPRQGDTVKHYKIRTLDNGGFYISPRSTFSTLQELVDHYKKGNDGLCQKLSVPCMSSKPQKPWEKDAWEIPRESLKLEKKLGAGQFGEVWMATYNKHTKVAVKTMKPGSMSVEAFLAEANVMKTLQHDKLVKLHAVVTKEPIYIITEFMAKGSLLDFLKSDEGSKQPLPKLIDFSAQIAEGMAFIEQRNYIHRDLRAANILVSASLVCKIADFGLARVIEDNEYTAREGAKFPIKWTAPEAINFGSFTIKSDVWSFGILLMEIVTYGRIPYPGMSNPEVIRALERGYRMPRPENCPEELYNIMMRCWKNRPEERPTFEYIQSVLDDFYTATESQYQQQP
readout name: phosphorylation enrichment
Number only, please.

Challenge: Fill in: phosphorylation enrichment of ILDEAYVMASV [EGFR_Y764] is ___
Response given: 0.515

Challenge: Request: RNGNRYFKGIV [DCX_Y64_D62N]
Response given: 0.527

---
Challenge: Fill in: phosphorylation enrichment of SKGFAYVHFDS [PABPC5_Y149_YF] is ___
Response given: 0.378

Challenge: Request: KQLYAYKMLMA [TMC2_Y209]
Response given: 0.458

Challenge: Request: GELQGYDIMEP [MSH2_Y863_S860L]
Response given: 0.508

Challenge: Request: WRVISYHVVVW [ATP13A2_Y50_G49S]
Response given: 0.544

Challenge: Request: SNPAYYVLEGV [INPPL1_Y987_N982S]
Response given: 0.917

Challenge: Request: DASAVYLHDFQ [PLCG2_Y242]
Response given: 0.622

Challenge: Request: YEEDSYVERSQ [RET_Y905_K907E]
Response given: 0.498

Challenge: Request: IDGLEYLHSQG [STK11_Y166]
Response given: 0.413

Challenge: Request: PLFRVYGLESL [INSR_Y94_L89P]
Response given: 0.574

###

Here, each record is paired with measured phosphorylation enrichment data.
target: Jak2 (UniProt O60674); assay: phosphorylation enrichment, bacterial display (enrichment ratio); higher = better substrate or ligand; peptides without Tyr show the background
Sequence (O60674 whole entry, looked up): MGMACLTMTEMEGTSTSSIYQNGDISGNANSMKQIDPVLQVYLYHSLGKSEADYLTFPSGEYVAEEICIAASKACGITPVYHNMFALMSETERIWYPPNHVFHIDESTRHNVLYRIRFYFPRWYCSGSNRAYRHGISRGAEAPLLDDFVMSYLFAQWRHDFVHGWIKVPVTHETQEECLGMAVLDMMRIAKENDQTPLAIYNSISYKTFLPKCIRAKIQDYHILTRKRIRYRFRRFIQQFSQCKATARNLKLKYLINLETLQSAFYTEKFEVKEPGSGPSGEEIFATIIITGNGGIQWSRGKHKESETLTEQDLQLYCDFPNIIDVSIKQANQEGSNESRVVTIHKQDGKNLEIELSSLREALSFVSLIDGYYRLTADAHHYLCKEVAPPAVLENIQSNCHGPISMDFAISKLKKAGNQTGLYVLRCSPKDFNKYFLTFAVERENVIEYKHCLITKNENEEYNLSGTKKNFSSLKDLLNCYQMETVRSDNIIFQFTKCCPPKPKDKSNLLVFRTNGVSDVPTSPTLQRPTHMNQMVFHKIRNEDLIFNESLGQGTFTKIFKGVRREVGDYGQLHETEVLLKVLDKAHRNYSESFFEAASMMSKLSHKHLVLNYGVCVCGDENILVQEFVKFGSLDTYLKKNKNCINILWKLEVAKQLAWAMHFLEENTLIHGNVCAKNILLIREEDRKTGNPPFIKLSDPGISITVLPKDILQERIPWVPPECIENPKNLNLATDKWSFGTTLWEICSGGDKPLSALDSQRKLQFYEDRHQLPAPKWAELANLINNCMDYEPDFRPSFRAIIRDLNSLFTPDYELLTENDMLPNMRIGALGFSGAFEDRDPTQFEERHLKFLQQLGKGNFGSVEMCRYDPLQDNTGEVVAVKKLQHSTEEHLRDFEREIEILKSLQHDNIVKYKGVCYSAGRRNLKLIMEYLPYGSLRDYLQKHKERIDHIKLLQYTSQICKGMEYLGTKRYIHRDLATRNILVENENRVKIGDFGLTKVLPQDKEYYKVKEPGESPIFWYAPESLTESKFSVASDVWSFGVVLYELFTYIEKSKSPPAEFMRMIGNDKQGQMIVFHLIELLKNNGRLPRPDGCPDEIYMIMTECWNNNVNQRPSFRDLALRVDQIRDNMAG
Number only, please.

Below, each entry is followed by its recorded phosphorylation enrichment result.
Challenge: Observed phosphorylation enrichment on Jak2 (UniProt O60674) for GMTRNYIIFIE [BCO2_Y294] , please.
Response given: 0.885

Challenge: Request: RHTRSYDYTEG [FGF7_Y56_M59T]
Response given: 0.587

Proceed to the following item.
Challenge: Observed phosphorylation enrichment on Jak2 (UniProt O60674) for ALKKPYSVLFK [RPF2_Y59_G60S_YF] , please.
Response given: 0.729

###

target: Jak2 (UniProt O60674); assay: phosphorylation enrichment, bacterial display (enrichment ratio); higher = better substrate or ligand; peptides without Tyr show the background
readout name: phosphorylation enrichment
Number only, please.

Below, each entry is followed by its recorded phosphorylation enrichment result.
Challenge: Fill in: phosphorylation enrichment of GTCGGYCSVLG [RAB18_Y202_A198T] is ___
Response given: 0.451

Challenge: Request: DVFVSYDCGKS [SORL1_Y139_Y141C_YF]
Response given: 1.05

Challenge: Request: AEQDWYHGAIP [FER_Y461]
Response given: 0.802

Challenge: Request: EPSVPYRGTVF [GLI3_Y104]
Response given: 0.783

---
Challenge: Fill in: phosphorylation enrichment of SNSAAYSGSVA [PDLIM5_Y382_T381A] is ___
Response given: 0.636

Challenge: Request: DNKALYDICFR [TUBB3_Y208_E205K]
Response given: 1.18

Challenge: Request: FQLENCCNGGG [INS_Y108_Y108C_YF]
Response given: 0.85

Challenge: Request: FTRNFYVRAVL [CYBA_Y88_YF]
Response given: 1.54

Challenge: Request: IKIMGSSIRTI [IDS_Y490_Y490S]
Response given: 0.492

###

Here, each record is paired with measured phosphorylation enrichment data.
target: FGFR3 (UniProt P22607); experiment: phosphorylation enrichment, bacterial display (enrichment ratio); higher = better substrate or ligand; peptides without Tyr show the background
Sequence (P22607 whole entry, looked up): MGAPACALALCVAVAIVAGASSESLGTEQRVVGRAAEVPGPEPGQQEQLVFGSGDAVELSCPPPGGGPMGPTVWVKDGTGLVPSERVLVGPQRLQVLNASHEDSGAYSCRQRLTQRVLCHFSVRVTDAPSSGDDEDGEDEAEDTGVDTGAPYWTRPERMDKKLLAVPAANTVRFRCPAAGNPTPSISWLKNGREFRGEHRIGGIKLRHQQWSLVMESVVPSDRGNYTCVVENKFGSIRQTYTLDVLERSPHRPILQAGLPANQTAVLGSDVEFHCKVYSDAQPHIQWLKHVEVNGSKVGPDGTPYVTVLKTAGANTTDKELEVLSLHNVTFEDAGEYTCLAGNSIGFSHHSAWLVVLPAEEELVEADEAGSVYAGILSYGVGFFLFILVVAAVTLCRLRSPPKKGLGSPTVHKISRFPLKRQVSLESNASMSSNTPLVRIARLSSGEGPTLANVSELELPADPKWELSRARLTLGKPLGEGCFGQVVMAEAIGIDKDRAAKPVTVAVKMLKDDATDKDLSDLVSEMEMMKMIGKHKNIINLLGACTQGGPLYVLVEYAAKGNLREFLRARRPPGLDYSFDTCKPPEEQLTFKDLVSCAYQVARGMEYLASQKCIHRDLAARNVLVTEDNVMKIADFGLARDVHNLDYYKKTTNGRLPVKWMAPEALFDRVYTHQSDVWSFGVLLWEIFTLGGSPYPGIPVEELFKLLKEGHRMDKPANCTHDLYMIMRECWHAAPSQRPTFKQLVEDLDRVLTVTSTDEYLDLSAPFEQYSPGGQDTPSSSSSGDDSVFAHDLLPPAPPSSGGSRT

Challenge: Fill in: phosphorylation enrichment of LTERGYSFTTK [ACTG1_Y198_T203K] is ___
Response given: 1.54

Challenge: Request: ISSLRYELLEE [TRPC6_Y896]
Response given: 0.764

Challenge: Request: PIFEGYALPHA [ACTA1_Y171_YF]
Response given: 0.665

---
Challenge: Fill in: phosphorylation enrichment of GDEAIYATVAG [NRTKtide_2018] is ___
Response given: 3

Challenge: Request: NKFTTYLPRLP [C9orf24_Y126_YF]
Response given: 0.503
